target: TDP2 (Homo sapiens (Human)); assay: gel-based TDP2 fluorescence assay in vitro; assay type: biochemical; settings: Table 7, HPLC-purified oxime leads; read-out: TDP2 IC50
Sequence (O95551 whole entry, species assumed): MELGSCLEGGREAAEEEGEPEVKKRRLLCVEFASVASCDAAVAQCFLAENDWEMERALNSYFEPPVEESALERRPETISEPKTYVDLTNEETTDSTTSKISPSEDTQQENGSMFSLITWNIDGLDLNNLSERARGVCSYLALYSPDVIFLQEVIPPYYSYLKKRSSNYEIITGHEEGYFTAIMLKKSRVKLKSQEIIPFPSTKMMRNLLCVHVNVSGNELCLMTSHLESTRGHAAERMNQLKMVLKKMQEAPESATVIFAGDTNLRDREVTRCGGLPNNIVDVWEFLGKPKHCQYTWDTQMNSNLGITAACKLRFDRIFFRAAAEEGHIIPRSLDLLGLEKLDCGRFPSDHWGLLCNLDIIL
measured parameter: IC50

Example results:
N#Cc1ccc(-c2ccc(/C=N/OCc3ccc4nc(-c5ccccc5)c(Nc5ccc(C(=O)O)cc5)n4c3)cc2)nc1 :: 62.1 µM
N#Cc1ccc(-c2ccc(/C=N\OCc3ccc4nc(-c5ccccc5)c(Nc5ccc(C(=O)O)cc5)n4c3)cc2)nc1 :: > 100 µM
O=C(O)c1ccc(Nc2c(-c3ccc(CO/N=C\c4ccc(-c5ccccc5)cc4)cc3)nc3cc(-c4ccccc4)ccn23)cc1 :: > 100 µM
O=C(O)c1ccc(Nc2c(-c3ccc(CO/N=C/c4ccc(-c5ccccc5)cc4)cc3)nc3cc(-c4ccccc4)ccn23)cc1 :: > 100 µM
Cc1cncc(Oc2ccc(/C=N/OCc3ccc(-c4nc5cc(-c6ccccc6)ccn5c4Nc4ccc(C(=O)O)cc4)cc3)cc2)n1 :: > 100 µM
Cc1cncc(Oc2ccc(/C=N/OCc3ccc4nc(-c5ccccc5)c(Nc5ccc(C(=O)O)cc5)n4c3)cc2)n1 :: > 100 µM
O=C(O)c1ccc(Nc2c(-c3ccc(CO/N=C/c4ccc(-c5cnccn5)cc4)cc3)nc3cc(-c4ccccc4)ccn23)cc1 :: 8.8 µM
Cc1cncc(Oc2ccc(/C=N\OCc3ccc4nc(-c5ccccc5)c(Nc5ccc(C(=O)O)cc5)n4c3)cc2)n1 :: > 100 µM
O=C(O)c1ccc(Nc2c(-c3ccc(CO/N=C/c4ccc(N5CCCC5=O)cc4)cc3)nc3cc(-c4ccccc4)ccn23)cc1 :: 10.9 µM
N#Cc1ccc(-c2ccc(/C=N\OCc3ccc(-c4nc5cc(-c6ccccc6)ccn5c4Nc4ccc(C(=O)O)cc4)cc3)cc2)nc1 :: > 100 µM

As a next step, examine the compound that follows.
Query: What IC50 value was documented for this compound, O=C(O)c1ccc(Nc2c(-c3ccc(CO/N=C\c4ccc(N5CCCC5=O)cc4)cc3)nc3cc(-c4ccccc4)ccn23)cc1 ?
Reply: > 100 µM

The values you see were collected from patent US20250011330A1.
